# ASSAYED TARGET: Sulfhydryl oxidase 1 (Homo sapiens)
# EXPERIMENT: QSOX1 enzyme inhibitors, primary screen, biochemical, ROS-Glo H2O2 luminescence, HTS (AID 1347418)
# CONDITIONS USED: recombinant QSOX1, ROS-Glo H2O2 luminescence; at 12.5 µM; hits give high values; active = any value above zero
The campaign covered roughly 1,300 compounds. About 750 (58%) were called active. Some of the results follow.
// one of yes (active), no (inactive), no free text

>  <MOLECULE>
CC1=C(CC(=O)O)c2cc(F)ccc2/C1=C\c1ccc(S(C)(=O)=O)cc1

>  <ASSAYED TARGET>
Sulfhydryl oxidase 1 (Homo sapiens)

>  <CLASS NAME>
yes

$$$$
>  <MOLECULE>
CN=C(NC#N)NCCSCc1nc[nH]c1C

>  <ASSAYED TARGET>
Sulfhydryl oxidase 1 (Homo sapiens)

>  <CLASS NAME>
yes

$$$$
>  <MOLECULE>
Fc1ccc([C@@H]2CCNC[C@H]2COc2ccc3c(c2)OCO3)cc1

>  <ASSAYED TARGET>
Sulfhydryl oxidase 1 (Homo sapiens)

>  <CLASS NAME>
no

$$$$
>  <MOLECULE>
Cc1cnc(C(=O)NCCc2ccc(S(=O)(=O)NC(=O)NC3CCCCC3)cc2)cn1

>  <ASSAYED TARGET>
Sulfhydryl oxidase 1 (Homo sapiens)

>  <CLASS NAME>
yes

$$$$

Could you please tell me the result logged for `Brc1c(NC2=NCCN2)ccc2nccnc12` in this assay?
no
